Assay System: human GLP1-R (Homo sapiens, UniProt P43220)
Sequence (P43220 24-463): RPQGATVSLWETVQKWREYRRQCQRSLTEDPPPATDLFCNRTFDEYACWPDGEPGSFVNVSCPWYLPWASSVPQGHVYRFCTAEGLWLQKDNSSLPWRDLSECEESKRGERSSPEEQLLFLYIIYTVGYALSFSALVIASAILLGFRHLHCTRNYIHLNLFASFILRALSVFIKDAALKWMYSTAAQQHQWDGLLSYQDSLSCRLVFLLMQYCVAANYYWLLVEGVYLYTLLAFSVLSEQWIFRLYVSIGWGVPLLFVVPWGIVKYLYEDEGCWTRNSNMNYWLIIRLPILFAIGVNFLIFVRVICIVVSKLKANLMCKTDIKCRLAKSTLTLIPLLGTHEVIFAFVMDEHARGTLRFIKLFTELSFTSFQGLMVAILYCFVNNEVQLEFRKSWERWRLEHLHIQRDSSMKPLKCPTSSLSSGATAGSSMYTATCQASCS
Method Notes: GLP1-R internalization assay in HEK293 cells
Assay type: cell-based
Condition Details: HEK293 cells expressing SNAP-GLP-1R; read-out: GLP1R Internalization EC50
Starred links: 1 amine or outer side, 2 acyl side, 3 side chain; linkers in the order of their positions; H or OH if unused. Non-standard residues stand in square brackets, D forms with d. Groups on a side chain read outwards from the residue. *: point of attachment. C18 diacid = O=C(O)CCCCCCCCCCCCCCCCC(=O)*; γGlu = O=C(O)[C@H](CCC(=O)[*:2])N[*:1]; αMeL = CC(C)C[C@](C)(N)C(=O)O; Orn = NCCC[C@H](N)C(=O)O; AEEA = NCCOCCOCC(=O)O; Aib = CC(C)(N)C(=O)O
Endpoint Name: EC50 (nM)
Please give a number only; it is taken to be in nM.

According to the records, this substance H-Y[Aib]QGTFTSDFS[Orn][αMeL]LDKK([AEEA-γGlu-C18 diacid])AQ[Aib]AFIEWLLEGGSSSGAPPPSGT-NH2 [Example 174] displays EC50 of 123

EC50 measured on H-Y[Aib]QGTFTSDFS[Orn][αMeL]LDKK([γGlu-AEEA-γGlu-C18 diacid])AQ[Aib]AFIEYLLE[Aib]GPSSGAPPPSGT-NH2 [Example 276] = 237

----------
Parameter: EC50. Scope: all listed entries.
Assay System: hGIPR (Homo sapiens, UniProt P48546)
Sequence (P48546 22-466): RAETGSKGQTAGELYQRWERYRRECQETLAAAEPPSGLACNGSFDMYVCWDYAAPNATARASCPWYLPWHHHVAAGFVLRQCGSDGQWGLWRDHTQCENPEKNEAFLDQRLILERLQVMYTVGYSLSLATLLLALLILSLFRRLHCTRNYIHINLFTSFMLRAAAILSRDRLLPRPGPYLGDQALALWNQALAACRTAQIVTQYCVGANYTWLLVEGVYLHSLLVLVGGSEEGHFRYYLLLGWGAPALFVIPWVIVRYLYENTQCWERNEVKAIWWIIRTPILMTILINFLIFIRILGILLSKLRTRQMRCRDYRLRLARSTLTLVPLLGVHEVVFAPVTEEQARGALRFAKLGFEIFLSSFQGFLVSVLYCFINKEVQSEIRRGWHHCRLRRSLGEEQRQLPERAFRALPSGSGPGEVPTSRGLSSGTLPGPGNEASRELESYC
Method Notes: Functional cAMP activation in the presence of 0.1% casein (no HSA);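 further: intracellular cAMP rise after 30 min at 37 °C read by HTRF against a standard curve, scaled between buffer alone (0%) and top control ligand concentration (100%), four-parameter fit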
Format: cell-based
Condition Details: in the presence of 0.1% casein (no HSA); geometric mean; read-out: Relative cAMP EC50, hGIPR
Starred links: 1 amine or outer side, 2 acyl side, 3 side chain; linkers in the order of their positions; H or OH if unused. Non-standard residues stand in square brackets, D forms with d. Groups on a side chain read outwards from the residue. No end group written: not given here. *: point of attachment. C20 diacid = O=C(O)CCCCCCCCCCCCCCCCCCC(=O)*; C18 diacid = O=C(O)CCCCCCCCCCCCCCCCC(=O)*; γGlu = O=C(O)[C@H](CCC(=O)[*:2])N[*:1]; αMe4Pal = C[C@](N)(Cc1ccncc1)C(=O)O; 4Pal = N[C@@H](Cc1ccncc1)C(=O)O; αMeL = CC(C)C[C@](C)(N)C(=O)O; Orn = NCCC[C@H](N)C(=O)O; AEEA = NCCOCCOCC(=O)O; Aib = CC(C)(N)C(=O)O
Record the value in nM, omitting the unit from your answer.

// below: answered substances
{"Substance": "H-Y[Aib]QGTFTSDFS[Orn][αMeL]LDKK([AEEA-AEEA-γGlu-C18 diacid])AQ[Aib]AFIEWLLEGGHSSGAPPPGGE-NH2 [Example 271]", "Endpoint Name": "EC50", "Value Units": "nM", "Recorded Measurement": 0.152}
{"Substance": "H-Y[Aib]QGTFTSD[4Pal]SQ[αMeL]LDKK([AEEA-γGlu-γGlu-C18 diacid])AQ[αMe4Pal]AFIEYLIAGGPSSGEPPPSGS-NH2 [Example 947]", "Endpoint Name": "EC50", "Value Units": "nM", "Recorded Measurement": 0.289}
{"Substance": "H-Y[Aib]QGTFTSDFS[Orn][αMeL]LDKK([AEEA-AEEA-γGlu-C18 diacid])AQ[Aib]AFIEYLLE[Aib]GPSSGAPPPEGS-NH2 [Example 194]", "Endpoint Name": "EC50", "Value Units": "nM", "Recorded Measurement": 0.212}
{"Substance": "H-Y[Aib]QGTFTSD[4Pal]S[Orn][αMeL]LDKK([γGlu-γGlu-C18 diacid])AQ[αMe4Pal]AFIEYLIAGGPSSGAPPPSGSE-NH2 [Example 1009]", "Endpoint Name": "EC50", "Value Units": "nM", "Recorded Measurement": 0.13}
{"Substance": "H-Y[Aib]QGTFTSD[4Pal]SQ[αMeL]LDKK([γGlu-γGlu-C18 diacid])AQ[αMe4Pal]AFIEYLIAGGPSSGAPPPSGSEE-NH2 [Example 960]", "Endpoint Name": "EC50", "Value Units": "nM", "Recorded Measurement": 0.124}

GET /value?item= H-Y[Aib]QGTFTSD[4Pal]S[Orn][αMeL]LDKK([γGlu-γGlu-γGlu-C18 diacid])AQ[αMe4Pal]AFIEYLIE[Aib]GPSSGAPPPSGS-NH2 [Example 866] &field=EC50 returns 0.148

response.value for H-Y[Aib]QGTFTSDFS[Orn][αMeL]LDKK([AEEA-γGlu-C20 diacid])AQ[Aib]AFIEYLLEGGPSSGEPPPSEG-NH2 [Example 59] (field: EC50) = 0.54

Measured EC50, Y[Aib]QGTFTSD[4Pal]SR[αMeL]LDKK([AEEA-γGlu-C18 diacid])AQ[αMe4Pal]AFIE[αMe4Pal]LIEGGPSSGAPPPSGS-NH2 [Example 950] : 0.18
